Tested on: NCI/ADR-RES ovarian
test-protocol: NCI-60 one-dose screen, 48 h
conditions-used: 10 µM unless noted
Experimental: Growth inhibition of the NCI/ADR-RES human […] tumor cell line is measured as a screen for anti-cancer activity. Cells are grown in 96 well plates and exposed to the test compound for 48 hours. Compounds are tested at a single concentration, which is 10^-5 M for most compounds. The reported endpoint is percent growth (GI% or GIPRCNT), where numbers from 0 - 100% represent growth inhibition, and numbers from -100% - 0 represent cell death. For example, a value of 40 represents 60% growth inhibition. […]
The panel holds about 83,000 compounds, 20% with a hit somewhere; the sample as a whole holds those more often. Active and inactive are the calls of the source. How the source made its calls: active means growth percent below 10; inactive means the rest.
Valid outcomes are listed here; reply with one: active, inactive

INSERT INTO results (compound, label_value) VALUES
  ('CC(=O)OC[C@]12CC[C@@H](C(=O)CBr)[C@@H]1[C@H]1CC[C@@H]3[C@@]4(C)CCCNC(C)(C)[C@@H]4CC[C@@]3(C)[C@]1(C)CC2', 'active'),
  ('CC(C)=CC/C=C(/C)[C@H]1CC[C@]2(C)[C@@H]1CC[C@@H]1[C@@]3(C)CC/C(=N/O)C(C)(C)[C@@H]3CC[C@]12C', 'inactive'),
  ('CCOC(=O)C(C(C)=O)c1nc2sc3cc(Cl)c(Cl)cc3n2c(=O)c1C#N (stereo unspecified)', 'inactive'),
  ('Oc1ccc(N=Nc2nccs2)c(O)c1', 'inactive'),
  ('Cc1cc(C)c(O)c(CNCCCCCCNCc2cc(C)cc(C)c2O)c1', 'active'),
  ('O=C(Nc1ccc(Nc2ccncc2)cc1)c1ccc([N+](=O)[O-])cc1', 'inactive'),
  ('COc1ccc2c(c1)C(C)Cc1c(ncnc1-n1cnc3ccccc31)N2C (stereo unspecified)', 'inactive'),
  ('Nc1cc(Cl)cc2cccnc12', 'inactive');

Test call, this compound: Cc1cc[n+](CCCCCCCCCC[n+]2ccc(C)cc2)cc1
inactive

What did the test return for CC1(C)NCCC[C@]2(C)[C@H]3C=CC4=C5C[C@](C)(CO)CC[C@]5(C)CC[C@@]4(C)[C@]3(C)CC[C@@H]12 ?
active

Assay result, entry FC(F)(F)c1ccc2c(c1)Sc1ccccc1N2 — outcome?
inactive

Called result for Fc1ccc(NC(=S)c2ccccc2)cc1
inactive

Hi team, can someone confirm the assay call for O=C(NCc1ccccc1)C(Cl)Cl ?
inactive

Tell me the recorded outcome of this test for COc1ccc(OC)c([N+](=O)[O-])c1C(=O)CNC(C)=O .
inactive

---

System: OVCAR-3 ovarian
test-protocol: NCI-60 one-dose screen, 48 h (100 = growth as untreated, 0 = no growth, -100 = all killed)
conditions-used: 10 µM unless noted
Compounds without any hit were thinned out: in the full panel of roughly 83,000, 20% have a hit.
observed-property: growth (%)
Please give a number only; it is taken to be in %.

Example entries and their recorded answers appear below.
INSERT INTO assay_data (compound, subject_of_test, reported_measurement) VALUES
  ('CCN(CC)c1ccc2cc(NC(=O)OCCNC(=O)CCNC(=O)[C@H](CC(C)C)NC(=O)C(C)(C)NC(=O)C(C)(C)NC(=O)[C@H](CC(C)C)NC(=O)CCNC(=O)C(C)(C)NC(=O)[C@H](CC(C)C)NC(=O)CCNC(=O)[C@@](C)(CC)NC(=O)[C@H](C)NC(=O)CCNC(=O)C(C)(C)NC(=O)[C@H](C)NC(=O)[C@@H]3CCCN3C(=O)[C@@](C)(CC)NC(=O)[C@H](Cc3ccccc3)NC(=O)C3CCCN3C(=O)C(C)(C)NC(=O)C3CCCN3C(=O)C(C)(C)NC(C)=O)c(=O)oc2c1 (some centres not stated)', 'OVCAR-3 ovarian', -100),
  ('N#C/C(C(=O)c1ccccc1)=C1/C(=O)Nc2ccc(F)cc21', 'OVCAR-3 ovarian', 106),
  ('COc1ccc(C2CC(c3ccc4ccccc4c3)=NN2c2nc(O)c(C3=c4cc(OC)ccc4=NC3=O)s2)cc1 (configuration not stated)', 'OVCAR-3 ovarian', -55.5);

// Cc1ccc(S(=O)(=O)Oc2ccc([N+](=O)[O-])cc2[N+](=O)[O-])cc1 : growth value = 107

Per the records, this compound ( CCc1cccc(Cl)c1 ) has growth equal to 110

Record summary for COc1ccc(-c2cc(-c3ccc(Cl)cc3)nc(NCCCCNc3ccnc4cc(Cl)ccc34)n2)cc1 : reported growth = 96

Item: COC(=O)[C@H](CC(C)C)NC(=O)NC(=O)NC(=O)CI | growth: -74.1

Please fill in: growth reported for O=C(N/N=C/c1ccc([N+](=O)[O-])cc1)c1ccc(Br)o1 = 121

---

Tested on: DU-145 prostate
test-protocol: NCI-60 one-dose screen, 48 h (100 = growth as untreated, 0 = no growth, -100 = all killed)
conditions-used: 10 µM unless noted
Compounds without any hit were thinned out: in the full panel of roughly 83,000, 20% have a hit.
Each entry below carries its reported growth.
// units = %; emit number, no label

Below, each entry is followed by its recorded growth result.
INSERT INTO results (compound, subject_of_test, unit_name, reported_measurement) VALUES
  ('O=C(OCc1ccc2c(Cl)cc(Cl)c(O)c2n1)N1CCN(C(=O)c2cc3cc(F)ccc3[nH]2)CC1', 'DU-145 prostate', '%', -10.4),
  ('CCn1cc(-c2ccnc(NCCNS(=O)(=O)c3cccc4ccccc34)c2)c(-c2cccc(O)c2)n1', 'DU-145 prostate', '%', 97.9);

Item: CCCCNC(=O)NS(=O)(=O)Cc1ccccc1 | growth: 111

The measured growth associated with CCOC(=O)c1c[nH]n2c(=S)ncnc12 reads 108

Measured growth of C#C[C@]1(O)CC[C@H]2[C@@H]3CC=C4c5nc(Nc6ccccn6)sc5CC[C@]4(C)[C@H]3CC[C@@]21C : 17.2

So for CCCCCCCCCN(CCCCCCCCC)C(C)C(=O)c1ccc2cc(Br)c3ccccc3c2c1 (stereo not given) , the logged growth turned out to be 88.6

According to the records, this compound CSc1nc2sc3cc(Cl)c(Cl)cc3n2c(=N)c1C#N displays growth of 107

Documented growth of COc1cc2c(c(OC)c1)C1c3cc(OC)ccc3NC(=O)N1CC2 (stereo not given) : 102

Given item CCc1ccc(C2=C/C(=C/c3ccccc3)C(=O)N2CCc2ccc(S(N)(=O)=O)cc2)cc1 , the value recorded as its growth is 115

Per the record, CCOc1cc(/C=N\NC(=O)N/N=C/c2ccc(O)c(OCC)c2)ccc1O has growth of 14.9

---

Test system: SK-MEL-2 melanoma
test-protocol: NCI-60 one-dose screen, 48 h
conditions-used: 10 µM unless noted
About 83,000 compounds went through this panel and 20% of them were active in at least one assay; those are over-represented in the sample as a whole. Calls of active or inactive are those of the source. Rule for the calls: active = growth percent below 10; inactive = the rest.
Pick one: True for active, False for inactive

Sample answers from the record:
INSERT INTO results (line_notation, label_value) VALUES
  ('COc1cc2c(c(Br)c1N)-c1cc(Br)c(N)cc1C2=O', 'False'),
  ('Fc1cc2[nH]ncc2c2c3c(c(-c4cn[nH]c4)nc12)CCCC3', 'True'),
  ('COc1ccc(NC(=O)Nc2ccc(-c3cccnc3)cc2N2CCC(CO)CC2)cc1', 'False'),
  ('CC(C)=CC/C=C(/C)[C@H]1CC[C@]2(C)[C@@H]1CC[C@@H]1[C@@]3(C)CCC(=O)NC(C)(C)[C@@H]3CC[C@]12C', 'True'),
  ('CCOC(=O)n1cc(C2=C(c3ccc(OC)c(OC)c3)COC2=O)c2ccccc21', 'False'),
  ('COc1ccc2[nH]c(C(=O)N3CCN(C(=O)OCc4ccc5c(Br)cc(Br)c(O)c5n4)CC3)cc2c1', 'True');

Identify the outcome logged in this assay for the compound shown: CCOc1cc(/C=N\NC(=O)N/N=C/c2ccc(O)c(OCC)c2)ccc1O
False

Which result was noted for this compound in the test: CCCCCN(CCCCC)CCCCCCCCN1CCCc2ccccc21
False

Give the logged outcome of this assay for the following compound: O=[N+]([O-])c1cccc(/C=C/c2ccc3ccccc3n2)c1
False

What did this assay record as the result for CC(C)OC(=O)Nc1cc(F)ccc1F ?
False

---

Test system: MOLT-4 leukemia
test-protocol: NCI-60 one-dose screen, 48 h
conditions-used: 10 µM unless noted
This is part of a sample that, as a whole, favours compounds with a hit. Of some 83,000 tested, about 20% had one in any assay. Calls of active or inactive are those of the source. How the source made its calls: active means growth percent below 10; inactive means the rest.
A correct response names exactly one class from y = active, n = inactive

Example entries begin here.
INSERT INTO results (compound, subject_of_test, label_value) VALUES
  ('C[C@@H]1C[C@H]2C(=O)O[C@@H](C)[C@H](NC(=O)[C@H](Cc3cc(F)cc(F)c3)NC(=O)Nc3ccc(Cl)cc3F)C(=O)N3C[C@H](O)C[C@H]3C(=O)N3CCN(C)C[C@H]3C(=O)N[C@@H](C)C(=O)N2C1', 'MOLT-4 leukemia', 'n'),
  ('COc1ccc(C(=O)/C=C/c2ccccn2)c(O)c1', 'MOLT-4 leukemia', 'n'),
  ('CC(C)=CCC[C@](C)(O)[C@H]1CC[C@]2(C)[C@@H]1CC[C@@H]1[C@@]3(C)CC/C(=N/O)C(C)(C)[C@@H]3CC[C@]12C', 'MOLT-4 leukemia', 'y'),
  ('Cc1ccc(NC(=O)N[C@@H](Cc2cc(F)cc(F)c2)C(=O)N[C@@H]2C(=O)N3CCC[C@H]3C(=O)N3CCCC[C@H]3C(=O)N[C@@H](C)C(=O)N3C[C@H](C)C[C@H]3C(=O)O[C@H]2C)cc1', 'MOLT-4 leukemia', 'n'),
  ('O=C1CC(c2ccccc2)Cc2nc3ccc(Cl)cc3cc21 (stereo unspecified)', 'MOLT-4 leukemia', 'n'),
  ('CCn1cc(-c2ccnc(NCCNS(=O)(=O)c3cccc4ccccc34)c2)c(-c2cccc(O)c2)n1', 'MOLT-4 leukemia', 'n');

GET /call?item= Nc1nc(N)c2c(n1)NC(c1ccc(F)cc1)C1CCc3ccccc3C1=N2 (stereo unspecified) returns the recorded outcome of this test.
n

// outcome(item) with item = CCOC(=O)C(c1ccccc1)N1C(=O)c2ccccc2C1=O (stereo unspecified)
n

Write down the call the test reported for this compound. Item: O=C(Nc1ccc(Oc2ccc(F)cc2)c(Cl)c1)c1cnccn1
n
